inhibition in vivo at 30 mg/kg: recorded values
Tested on: Harmaline-induced tremor
TEST DETAILS: Harmaline-induced Tremor Model
Format: in vivo
CONDITION DETAILS: Mus musculus, ip, adult male CD1 mice; test article 30 mg/kg i.p.; harmaline 30 mg/kg i.p.; read-out: Tremor Suppression Activity (magnitude of tremor suppression in percent compared to vehicle)
OBSERVED PROPERTY: inhibition in vivo at 30 mg/kg

COMPOUND	RESULT
CN([C@H]1CCOc2cc(F)ccc21)S(N)(=O)=O (stereo in doubt) [Compound 69]	≤ 24%
NS(=O)(=O)CC1CCOc2cc(F)cc(F)c21 (single isomer, unassigned) [Compound 17]	56 to 70%
CC[C@H]([C@@H]1CCOc2cc(F)ccc21)S(N)(=O)=O (stereo in doubt) [Compound 26]	71 to 100%
Cc1ccc2c(c1)OCCC2CS(N)(=O)=O (single isomer, unassigned) [Compound 57]	≤ 24%
NS(=O)(=O)C1(C2CCOc3cc(F)ccc32)CC1 (single isomer, unassigned) [Compound 27]	≤ 24%
CC1(C)CC(CS(N)(=O)=O)c2ccc(F)cc2O1 (single isomer, unassigned) [Compound 45]	71 to 100%
C[C@H]1COc2ccccc2[C@H]1CS(N)(=O)=O (stereo in doubt) [Compound 39]	25 to 55%
C[C@@H]1C[C@H](CS(N)(=O)=O)c2ccccc2O1 (stereo in doubt) [Compound 33]	25 to 55%
NS(=O)(=O)CC1CCOc2cc(C(F)(F)F)ccc21 (single isomer, unassigned) [Compound 37]	56 to 70%
C[C@H]1C[C@@H](CS(N)(=O)=O)c2ccccc2O1 (stereo in doubt) [Compound 34]	56 to 70%
C[C@H]1COc2cc(F)c(F)cc2[C@@H]1CS(N)(=O)=O (stereo in doubt) [Compound 10]	≤ 24%
C[C@H]1COc2cc(F)ccc2[C@H]1NS(N)(=O)=O (stereo in doubt) [Compound 74]	56 to 70%
CC[C@H]1C[C@@H](CS(N)(=O)=O)c2ccc(F)cc2O1 (stereo in doubt) [Compound 12]	56 to 70%
CC[C@@H]1C[C@H](CS(N)(=O)=O)c2ccc(F)cc2O1 (stereo in doubt) [Compound 11]	71 to 100%
NS(=O)(=O)N[C@H]1CCOc2cc(F)ccc21 (stereo in doubt) [Compound 71]	56 to 70%
NS(=O)(=O)N[C@@H]1CCOc2cc(F)ccc21 (stereo in doubt) [Compound 72]	25 to 55%
C[C@@H]1COc2ccccc2[C@@H]1CS(N)(=O)=O (stereo in doubt) [Compound 40]	25 to 55%
CC[C@@H]1COc2cc(F)ccc2[C@@H]1CS(N)(=O)=O (stereo in doubt) [Compound 20]	71 to 100%
CC[C@@H]([C@H]1CCOc2cc(F)ccc21)S(N)(=O)=O (stereo in doubt) [Compound 25]	56 to 70%
N#Cc1ccc2c(c1)OCCC2CS(N)(=O)=O (single isomer, unassigned) [Compound 59]	≤ 24%
C[C@H]1COc2ccccc2[C@@H]1CS(N)(=O)=O (stereo in doubt) [Compound 42]	≤ 24%
